target: human melanocortin 1 receptor (human), Q01726; assay: cell-based or functional assay
Sequence (Q01726 whole entry): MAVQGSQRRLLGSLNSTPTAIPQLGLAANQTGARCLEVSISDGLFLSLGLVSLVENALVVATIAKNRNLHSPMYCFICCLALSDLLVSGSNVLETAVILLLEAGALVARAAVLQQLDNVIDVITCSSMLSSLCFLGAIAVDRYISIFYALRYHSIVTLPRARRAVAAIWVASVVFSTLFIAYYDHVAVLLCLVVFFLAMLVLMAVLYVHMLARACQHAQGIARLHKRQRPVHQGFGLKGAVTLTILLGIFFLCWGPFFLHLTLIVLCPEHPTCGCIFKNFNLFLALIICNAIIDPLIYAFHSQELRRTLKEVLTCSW
measure.name: MC1R cAMP EC50 (nM)

Examples with their reported MC1R cAMP EC50 follow.
CAHFRWCAAFAW (modifications not checked) [Chem. 11] :: 2.17
CAHFRWCAHFRW (modifications not checked) [Chem. 111] :: 0.31
CAHFRWCRFFNAF (modifications not checked) [Chem. 13] :: 6.36
CAHFRWCAKKKR (modifications not checked) [Chem. 59] :: 0.16
CAHFRWCAEEEW (modifications not checked) [Chem. 44] :: 31.9
CAHFRWCAAAAW (modifications not checked) [Chem. 88] :: 1.31
CAHFRWCAAAAW (modifications not checked) [Chem. 87] :: 1.39
CAHFRWCKKKR (modifications not checked) [Chem. 101] :: 0.19

A. CAHFRWCAYFKW (modifications not checked) [Chem. 80]
B. CAHFRWCRFFNA (modifications not checked) [Chem. 12]
C. CAHFRWCAAAAR (modifications not checked) [Chem. 89]
D. CAHFRWCAHFRW (modifications not checked) [Chem. 8]
E. CAHFRWCAKKKR (modifications not checked) [Chem. 85]
Give the ascending ranking of the items by reported MC1R cAMP EC50. Provide the ranking by listing each label in its place in the requested order.
E, C, D, B, A
